- Test system: HCC1806 cells
- Procedure Summary: Inhibitory effect on HCC1806 cell proliferation
- Format: cell-based
- Measurement Setup: Homo sapiens; HCC1806, 72 h incubation, Cell Counting-Lite 2.0
Mark met only for IC50 values smaller than 6 nM; exact matches and larger values are not met.

| Compound | Discrete Label |
| --- | --- |
| CC[C@@]1(O)C(=O)OCc2c1cc1n(c2=O)Cc2c-1nc1cc(F)c(Cl)cc1c2CNC(=O)C(O)C1CC1 (stereo partly shown) | met |
| CC[C@@]1(O)C(=O)OCc2c1cc1n(c2=O)Cc2c-1nc1cc(F)c(C)c3c1c2[C@@H](NC(N)=O)CC3 | not met |
| CC[C@@]1(O)C(=O)OCc2c1cc1n(c2=O)Cc2c-1nc1cc(F)c(Cl)cc1c2CNC(=O)C(O)C(F)(F)F (stereo partly shown) | met |
| CC[C@@]1(O)C(=O)OCc2c1cc1n(c2=O)Cc2c-1nc1cc(F)c(Cl)cc1c2CNC(=O)CO | not met |
| CC[C@@]1(O)C(=O)OCc2c1cc1n(c2=O)Cc2c-1nc1cc(F)c(Cl)cc1c2CN | met |

Query string: Quick check: does CC[C@@]1(O)C(=O)OCc2c1cc1n(c2=O)Cc2c-1nc1cc(F)c(C)c3c1c2[C@@H](NS(N)(=O)=O)CC3 have IC50 under 6 nM?
Result string: met
